Value source: ChEMBL document CHEMBL5500346

- System: L02
- assay.comment: Antiproliferative activity against human HL7702 cells incubated for 72 hrs by CCK8 assay
- Format: toxicity, cell-based
- settings: l02, 72 h
property.label: Activity

Previously resolved entries follow.
> print(dat)
                                  structure      value
1  COc1cc2ncnc(Nc3ccc(F)c(Cl)c3)c2cc1OCCOCCOCCNC(=O)COc1c(Br)cc(/C=C2\C(=O)Nc3ccccc32)cc1Br  Non-Toxic
2  COc1cc2ncnc(Nc3ccc(F)c(Cl)c3)c2cc1OCCOCCOCCOCCNC(=O)COc1c(Br)cc(/C=C2\C(=O)Nc3ccc(I)cc32)cc1Br  Non-Toxic
3  COc1cc2ncnc(Nc3ccc(F)c(Cl)c3)c2cc1OCCOCCOCCNC(=O)COc1c(Br)cc(/C=C2\C(=O)Nc3ccc(Br)cc32)cc1Br  Non-Toxic
4  COc1cc2ncnc(Nc3ccc(F)c(Cl)c3)c2cc1OCCOCCOCCNC(=O)COc1c(Br)cc(/C=C2\C(=O)Nc3ccc(I)cc32)cc1Br  Non-Toxic
5  COc1cc2ncnc(Nc3ccc(F)c(Cl)c3)c2cc1OCCOCCOCCOCCOCCNC(=O)COc1c(Br)cc(/C=C2\C(=O)Nc3ccc(I)cc32)cc1Br  Non-Toxic

Please find the next compound below.
COc1cc2ncnc(Nc3ccc(F)c(Cl)c3)c2cc1OCCOCCNC(=O)COc1c(Br)cc(/C=C2\C(=O)Nc3ccc(C)cc32)cc1Br has a reported Activity of Non-Toxic

---

# Lookup of reported IC50 keyed by entry
- System: HCC827
- assay.comment: Antiproliferative activity against human HCC827 cells incubated for 72 hrs by CCK8 assay
- Type: functional, cell-based
- settings: HCC827, 72 h
Answer with the figure and its unit, nothing else.

> print(dat)
                                   compound   value
1  COc1cc2ncnc(Nc3ccc(F)c(Cl)c3)c2cc1OCCOCCOCCOCCNC(=O)C(C)Oc1c(Br)cc(/C=C2\C(=O)Nc3ccc(I)cc32)cc1Br (stereo not drawn)  923 nM

COc1cc2ncnc(Nc3ccc(F)c(Cl)c3)c2cc1OCCOCCOCCNC(=O)COc1c(Br)cc(/C=C2\C(=O)Nc3ccccc32)cc1Br has a reported IC50 of 1150 nM

COc1cc2ncnc(Nc3ccc(F)c(Cl)c3)c2cc1OCCOCCOCCOCCNC(=O)COc1c(Br)cc(/C=C2\C(=O)Nc3ccc(C)cc32)cc1Br has a reported IC50 of 937 nM

---

- System: HCC827
- assay.comment: Antiproliferative activity against human HCC827 cells incubated for 72 hrs by CCK8 assay
- Assay type: functional, cell-based
- settings: HCC827, 72 h
pIC50: −log10 of the molar value.
property.label: pIC50

Previously resolved entries follow.
> print(dat)
                                  structure   value
1  COc1cc2ncnc(Nc3ccc(F)c(Cl)c3)c2cc1OCCOCCNC(=O)COc1c(Br)cc(/C=C2\C(=O)Nc3ccc(Br)cc32)cc1Br  < 5.00
2  COc1cc2ncnc(Nc3ccc(F)c(Cl)c3)c2cc1OCCCCCCNC(=O)COc1c(Br)cc(/C=C2\C(=O)Nc3ccc(I)cc32)cc1Br  < 5.00

COc1cc2ncnc(Nc3ccc(F)c(Cl)c3)c2cc1OCCOCCNC(=O)COc1c(Br)cc(/C=C2\C(=O)Nc3ccc(C)cc32)cc1Br has a reported pIC50 of 5.76
